Target: Estrogen receptor (Homo sapiens) (UniProt P03372)
Sequence (P03372 whole entry, looked up): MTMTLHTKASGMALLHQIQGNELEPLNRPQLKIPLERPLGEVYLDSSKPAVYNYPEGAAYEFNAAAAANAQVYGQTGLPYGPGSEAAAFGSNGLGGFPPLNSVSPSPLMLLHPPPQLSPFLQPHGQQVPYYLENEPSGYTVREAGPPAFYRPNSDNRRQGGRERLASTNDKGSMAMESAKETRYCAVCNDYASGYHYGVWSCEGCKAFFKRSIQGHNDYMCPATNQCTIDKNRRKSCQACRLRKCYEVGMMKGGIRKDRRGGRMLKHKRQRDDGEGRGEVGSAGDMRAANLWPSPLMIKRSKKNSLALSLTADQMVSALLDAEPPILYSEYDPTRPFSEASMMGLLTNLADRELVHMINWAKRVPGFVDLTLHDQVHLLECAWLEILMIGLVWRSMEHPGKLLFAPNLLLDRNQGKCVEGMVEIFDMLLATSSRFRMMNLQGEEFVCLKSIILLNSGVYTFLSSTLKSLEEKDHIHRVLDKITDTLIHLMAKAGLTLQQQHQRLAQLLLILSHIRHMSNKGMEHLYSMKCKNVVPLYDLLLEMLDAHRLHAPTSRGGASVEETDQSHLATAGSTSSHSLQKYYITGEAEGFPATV
Assay: qHTS assay to identify small molecule antagonists of the estrogen receptor alpha (ER-alpha) signaling pathway (AID 743069); also: potency is read from the fitted curve at half-maximal effect
Conditions: HEK293 ER-alpha-UAS-bla, beta-lactamase ratio, antagonist mode; series mostly up to 69.4 µM
Excerpt: National Center for Advancing Translational Sciences [NCATS] NIH Chemical Genomics Center [NCGC] U.S. Environmental Protection Agency [EPA] National Institutes of Environmental Health Sciences [NIEHS] National Toxicology Program [NTP] U.S. Food and Drug Administration [FDA] Estrogen receptor (ER), a nuclear hormone receptor, plays an important role in development, metabolic homeostasis and reproduction. […]
Calls of active or inactive are those of the source. Calls follow the shape of the dose curve; as a rule, active = well fitted curve in the direction sought with a large enough effect in the signal ratio in the repeat runs (not every such curve was filed as active); inconclusive = weak or mixed curves, or effect the other way; inactive = no such curve, though single readings can be large or run the other way; the % refers to the signal ratio.
experimental_readout: Potency

>>> measured_result("Cc1cc2c(C(C)C)c(O)c(O)c(C=O)c2c(O)c1-c1c(C)cc2c(C(C)C)c(O)c(O)c(C=O)c2c1O")
"9.52 µM [inconclusive] (active)"
>>> measured_result("CCCCCCCCCCCCCCNCCO")
"inactive"
>>> measured_result("CC(C)c1ccc(O)c(C(C)C)c1")
"inactive"

====

test: qHTS assay for identifying genotoxic compounds that show differential cytotoxicity against isogenic chicken DT40 cell lines with known DNA damage response pathways - Rad54/Ku70 mutant cell line (AID 743015); settings: DT40 Rad54/Ku70 mutant viability, CellTiter-Glo, 40 h; series mostly up to 66.8 µM; also: nearly all actives have a fitted effect of over 60% in size
Inconclusive results are not listed. Active and inactive are the calls of the source. Calls follow the shape of the dose curve; as a rule, active = well fitted cell-killing curve with a large enough effect in the repeat runs; inconclusive = weak or mixed curves; inactive = no such curve, though single readings can be large or run the other way.
Outcomes: active, inactive

>>> discrete_label("CNCC[C@H](Oc1cccc2ccccc12)c1cccs1")
"active"
>>> discrete_label("C1CC(COCC2CO2)CCC1COCC1CO1 (configuration not stated)")
"active"
>>> discrete_label("CC(C)=C1CC[C@@H](C)CC1=O")
"inactive"
>>> discrete_label("C[C@@H]1CC[C@H]2C(C)(C)[C@H]3C[C@@]12CC[C@@]3(C)O")
"inactive"
>>> discrete_label("Clc1ccc(C(Cn2ccnc2)OCc2ccsc2Cl)c(Cl)c1 (configuration not stated)")
"active"
>>> discrete_label("Cc1oc(-c2ccccc2)nc1CCOc1ccc(C[C@H](Nc2ccccc2C(=O)c2ccccc2)C(=O)O)cc1")
"active"
>>> discrete_label("O=C(Nc1ccc(Cl)c(Cl)c1)c1cc(Cl)cc(Cl)c1O")
"active"
>>> discrete_label("C[Si](C)(C)Cl")
"inactive"
>>> discrete_label("Cc1occc1SSc1ccoc1C")
"active"
>>> discrete_label("Clc1ccc(C(Cn2ccnc2)OCc2c(Cl)cccc2Cl)c(Cl)c1 (configuration not stated)")
"active"
>>> discrete_label("C=CC(=O)OCC(O)COc1ccccc1 (configuration not stated)")
"active"
>>> discrete_label("CCCCCCCCCCCCCCCC")
"inactive"

====

experiment: qHTS assay to identify small molecule antagonists of the androgen receptor (AR) signaling pathway - cell viability counter screen (AID 743033; also: nearly all actives have a fitted effect of over 45% in size); settings: AR-bla HEK293 viability, CellTiter-Glo luminescence, 16 h; series mostly up to 58.5 µM
Results filed as inconclusive are left out. The source made the active and inactive calls. Calls follow the shape of the dose curve; as a rule, active = well fitted cell-killing curve with a large enough effect in the repeat runs; inconclusive = weak or mixed curves; inactive = no such curve, though single readings can be large or run the other way.
Possible outcomes: TRUE = active, FALSE = inactive

>>> discrete_label("CCC(C)(C)c1cc(O)c(C(C)(C)CC)cc1O")
"FALSE"
>>> discrete_label("O=C(Nc1ccc(Cl)c(Cl)c1)c1cc(Cl)cc(Cl)c1O")
"TRUE"
>>> discrete_label("C/C=C/C=N/NC(=O)c1ccncc1")
"FALSE"
